# System: E. coli NCTC 13846
# Type: cell-based, Escherichia coli
Ends that are not written are not given here.
metric.name: MIC, E. coli (NCTC 13846) (µM)
Give the quantity in µM, number only.

Form entry - test system: E. coli NCTC 13846; read-out: MIC, E. coli (NCTC 13846); substance: GLLSVLGSLKLIVPKVVPLIAEKL-NH2 [Caerin 1.1-LC PKVVP] 2

Form entry - test system: E. coli NCTC 13846; read-out: MIC, E. coli (NCTC 13846); substance: GLLSVLGSLKLIVPHVVPLIAEKL-NH2 [Caerin 1.1-LC] 4

* * *

Provide the reported MIC, K. pneumoniae (ATCC BAA-2342) of each item.
# Tested on: K. pneumoniae ATCC BAA-2342
# Assay type: cell-based, Klebsiella pneumoniae
Ends that are not written are not given here.
Give the quantity in µM, number only.

Request the reported MIC, K. pneumoniae (ATCC BAA-2342) associated with GLLSVLGSLKLIVPKVVPLIAEKL-NH2 [Caerin 1.1-LC PKVVP] 8

Request the reported MIC, K. pneumoniae (ATCC BAA-2342) associated with GLLSVLGSLKKIVPHVVPLIAEKL-NH2 [Caerin 1.1-LC 11K] 8

Request the reported MIC, K. pneumoniae (ATCC BAA-2342) associated with GLLSVLKSLKKIVPHVVPKIAEKL-NH2 [Caerin 1.1-LC 7.11.19K] 4

Request the reported MIC, K. pneumoniae (ATCC BAA-2342) associated with GLLSVLGSLKLIVPHIIPLIAEKL-NH2 [Caerin 1.1-LC PHIIP] 8

Request the reported MIC, K. pneumoniae (ATCC BAA-2342) associated with GLLSVLGSLKLIVPHVVPLIAEKL-NH2 [Caerin 1.1-LC] 16
